Data origin, for the record: ChEMBL document CHEMBL1149613

Tested on: DLD-1
protocol description: Cytotoxicity against human DLD1 cells after 24 hrs by Trypan blue exclusion test
Type: functional, cell-based
study conditions: DLD-1, 24 h
measurement kind: IC50
I'd appreciate it if you included the unit after the number.

-- ask Find the recorded IC50 belonging to COc1c(O)cc2oc3cc(O)c(CC=C(C)C)c(O)c3c(=O)c2c1CC=C(C)C and report it.
-- reply 7.5 µM
